test: VP16 transactivation inhibitors, counter-screen for SRC1 inhibitor project, cell-based, luminescence, high throughput (AID 588824); conditions: cell-based VP16 transactivation luciferase luminescence; at 3.6 µM
Active and inactive are the calls of the source. Rule as the data show it: active = inhibition above about 25%; inactive = the rest.
Outcome (select one): Yes (active), No (inactive)

Reference set, count: 6
1. Cc1cc(C(=O)CSc2nnc3ccccn23)c(C)n1-c1ccccc1    No
2. Nc1ncnc(N2CCc3ccccc32)c1[N+](=O)[O-]    Yes
3. COc1ccccc1NC(=O)c1cc(S(=O)(=O)NC2CCCC2)ccc1F    No
4. Brc1ccc2ncnc(NCc3cccnc3)c2c1    Yes
5. CC(=NNC(=S)Nc1cccc(Cl)c1)c1ccccn1    Yes
6. CN1CCN(c2ccccc2/C=C2/C(=O)Nc3ccccc32)CC1    No

Dear colleague, could you share the recorded outcome for `Cc1cc(=O)[nH]c(Nc2cccc(Br)c2)n1` when you have a moment? No

----------
inhibition values, listed per item
test system: T-cell receptor (TCR)-CD3 interaction, human; assay: TCR-CD3 interaction inhibitors, retest, confirmation, biochemical, fluorescence, TAMRA-labeled TCR probe (AID 652036); conditions: TAMRA-labeled TCR probe fluorescence binding assay; at 9.4 µM; stronger effect = higher value
This is one part of the list.
Kindly answer with a numeric value in %, unit omitted.

Some entries whose results are on file:
1) O=S1(=O)c2c(cccc2N2CCCC2)O[C@H](COCc2ccccc2)CN1C1CC1    1.77
2) CCCC1OC23CCCCC2C(C#N)(C#N)C1(C#N)C(=N)O3 (stereo not drawn)    10.8

Entry under review: `CN1CCN(/N=C/c2ccc(C#N)cc2)CC1` . Reported inhibition? 2.78

----------
assay: VP16 transactivation reporter inhibitors, counter-screen for LRH-1 inverse agonist project, cell-based, luminescence, high throughput (AID 651615); details: Gal4-VP16 luciferase reporter cells, at 3.6 µM, stronger effect = higher value
Endpoint Name: inhibition (%)
Kindly answer with a numeric value in %, unit omitted.

Some entries whose results are on file:
1. CCOc1ccc(NC(=O)Cn2nc(-c3ccccc3Cl)n(CC)c2=S)cc1    2.74
2. CN1CCN(c2ccc(-c3ccc4ccccc4n3)cc2)CC1    26.9
3. Cc1c(Cl)cccc1NC(=O)CSc1nc2ncc(Cl)cc2[nH]1    1.96

Next compound, inhibition to be filled in.
Entry under review: `NC(=S)N/N=C/c1ccc(-c2ccc([N+](=O)[O-])cc2)o1` . Reported inhibition? 13.5

----------
molecular target: Nuclear receptor coactivator 1 (Homo sapiens); test: SRC1 coactivator transcriptional activity inhibitors, confirmation, cell-based, luminescence, quadruplicate (AID 588820); details: HEK293 GAL4-SRC1 luciferase reporter, at 3.6 µM, stronger effect = higher value;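 also: 0% = DMSO wells and 100% = gossypol 36 µM treated wells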
Endpoint Name: inhibition (%)
Kindly answer with a numeric value in %, unit omitted.

Some entries whose results are on file:
1) Cc1cc2sc3ccc(C#CC4(O)CCCCC4)cc3c(=O)c2cc1C    90.4
2) COc1ccc(OC)c(NC(=O)c2cc(-c3c(C)cc(C)cc3O)n[nH]2)c1    11.1
3) CCC(C)n1ncn(-c2ccc(N3CCN(c4ccc(O)cc4)CC3)cc2)c1=O (stereo unspecified)    20.6
4) CN1CCN(c2ccc(Cl)cc2NC(=O)CC2OC(=O)c3ccccc32)CC1 (stereo unspecified)    -37.2
5) O=C(CSc1nc2sc3c(c2c(=O)n1-c1ccccc1)CCCC3)NCc1ccco1    4.53

Next molecule, inhibition to be filled in.
Entry under review: `O=C(CCCCC(=O)NN=Cc1ccccc1O)NN=Cc1ccccc1O` . Reported inhibition? 37.3
